target-or-system: T1, IHF from Pseudomonas aeruginosa (Pseudomonas aeruginosa, UniProt Q51472 2-100)
T1 construct: also called IHF (Pa); P. aeruginosa; not shown: poly-histidine tag
T1 sequence: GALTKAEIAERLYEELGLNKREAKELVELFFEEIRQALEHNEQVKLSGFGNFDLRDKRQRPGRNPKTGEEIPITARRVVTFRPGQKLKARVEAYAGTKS
assay-summary: ELISA

[
  {
    "binder": "TRL1232 (antibody, V domains shown) VH: QVQLVESGAEVKKPGALVKVSCKASGYTFSGYYMHWVRQAPGQGLEWMGWINPKSGGTKYAQKFQGRVTMTRDTSISTAYMELSRLRSDDTAVYFCARGGPSNLERFLERLQPRYSYDDKYAMDVWGQGTTVTVSS VL: DIVMTQSPGTLSLSPGARATLSCRASQSVSSIYLAWYQQKPGQAPRLLIFGASSRATGIPDRFSGSGSGTDFTLTISRLEPEDFAVYYCQQYGSSPYTFGQGTKLEIKR",
    "unit-info": "OD",
    "OD": 0.2
  },
  {
    "binder": "TRL1230 (antibody, V domains shown) VH: QVQLVQSGGGLVKPGGSLRLSCGASGFNLSSYSMNWVRQAPGKGLEWVSSISSRSSYIYYADSVQGRFTISRDNAKNSLYLQMNSLRAEDTAIYYCARVSPSTYYYYGMDVWGQGTTVTVSS VL: DIVLTQPSSVSVSPGQTARITCSGDELPKQYAYWYQQKPGQAPVLVIYKDNERPSGIPERFSGSSSGTTVTLTISGVQAEDEADYYCQSADSSGTYVVFGGGTKLTVL",
    "unit-info": "OD",
    "OD": 0.3
  },
  {
    "binder": "TRL1218 (antibody, V domains shown) VH: QVQLLESGADMVQPGRSLRLSCAASGFNFRTYAMHWVRQAPGKGLEWVAVMSHDGYTKYYSDSVRGQFTISRDNSKNTLYLQMNNLRPDDTAIYYCARGLTGLSVGFDYWGQGTLVTVSS VL: DIVLTQSASVSGSPGQSITISCTGTSSDVGGYNYVSWYQQHPGKAPKLMIYDVTTRPSGVSDRFSGSKSGNTASLTISGLQAEDEADYYCSSYSSGSTPALFGGGTQLTVL",
    "unit-info": "OD",
    "OD": 0.09
  },
  {
    "binder": "TRL1087 (antibody, V domains shown) VH: QVQLLESGPGLVRPSDTLSLTCTFSADLSTNAYWTWIRQPPGKGLEWIGYMSHSGGRDYNPSFNRRVTISVDTSKNQVFLRLTSVTSADTAVYFCVREVGSYYDYWGQGILVTVSS VL: DIEMTQSPSSLSASVGDRITITCRASQGISTWLAWYQQKPGKAPKSLIFSTSSLHSGVPSKFSGSGSGTDFTLTITNLQPEDFATYYCQQKWETPYSFGQGTKLDMIR",
    "unit-info": "OD",
    "OD": 0.06
  }
]

Values compiled from patent US20150197558A1.
